Every entry's value here was drawn from patent EP3653636A1.

Assay: Equilibrium solubility in water by UV absorbance at 205 nm (Example 10)
Format: physicochemical
Details: water, 25°C
reported metric: solubility thermodynamic (µg/mL)
Response body: numeric value in µg/mL, unit text excluded.

Give the measured solubility thermodynamic of C=C1C[C@@]23CC[C@H]4[C@@](C)(CCC[C@@]4(C)C(=O)O[C@@H]4O[C@H](CO)[C@@H](O)[C@H](O[C@@H]5O[C@H](CO)[C@@H](O)[C@H](O)[C@H]5O)[C@H]4O[C@@H]4O[C@H](CO)[C@@H](O)[C@H](O)[C@H]4O)[C@@H]2CC[C@]1(O[C@@H]1O[C@H](CO)[C@@H](O)[C@H](O[C@@H]2O[C@H](CO)[C@@H](O)[C@H](O)[C@H]2O)[C@H]1O[C@@H]1O[C@H](CO)[C@@H](O)[C@H](O)[C@H]1O)C3 [amorphous Rebaudioside X] .
2600
